Values were extracted from the supplement of paper PMC10567573.

B1: TRIB1 (parent)
chain: SYVRSRKRLREEEAARLFKQIVSA

# Variants of: B1
# Test Description: protein stability index of a GFP-peptide fusion (GPS, HEK-293T) (PSI 1-6); higher = more stable;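 also: lentivirally expressed fusions sorted by FACS into six bins by GFP to DsRed ratio, PSI derived from sequencing read proportions per bin multiplied by bin number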
# Condition Info: c terminus: a fixed tail appended
Endpoint Label: protein stability index
Respond using a number only.

Reference set, count: 9
> print(dat)
                        seq.string  meas.value
1  SYVRSRKRLREEEAARLFKQYVSA [I21Y]        2.06
2  SYVRSRKRLREEEAARLFKQIVSG [A24G]        3.39
3  SYVRSRKRLREEEAARLFKQIVRA [S23R]        1.99
4  SYVRSRKRLREEEAARLFKDIVSA [Q20D]        2.08
5   SYVRSRKALREEEAARLFKQIVSA [R8A]         2.3
6  SYVRSRKRLREEMAARLFKQIVSA [E13M]        2.21
7  SYVRSRKRLRAEEAARLFKQIVSA [E11A]        2.05
8   SYVRSRKCLREEEAARLFKQIVSA [R8C]        2.05
9  SYVRSRKRLREEEAWRLFKQIVSA [A15W]        1.74

// next item, protein stability index requested
Specify measured protein stability index for SYVFSRKRLREEEAARLFKQIVSA [R4F] .
1.22
